target: cGAS (Homo sapiens, UniProt Q8N884); assay: ISD70-driven IP-10 (and IFN-β) production in THP-1 cells, ELISA; type: cell-based; parameters: endogenous in cells; host or cells: THP-1 (undifferentiated); settings: THP-1; 100 nM ASO overnight, then ISD70 2.5 μg/ml 7-8 h; percentage of ISD70 only
Sequence (Q8N884 whole entry): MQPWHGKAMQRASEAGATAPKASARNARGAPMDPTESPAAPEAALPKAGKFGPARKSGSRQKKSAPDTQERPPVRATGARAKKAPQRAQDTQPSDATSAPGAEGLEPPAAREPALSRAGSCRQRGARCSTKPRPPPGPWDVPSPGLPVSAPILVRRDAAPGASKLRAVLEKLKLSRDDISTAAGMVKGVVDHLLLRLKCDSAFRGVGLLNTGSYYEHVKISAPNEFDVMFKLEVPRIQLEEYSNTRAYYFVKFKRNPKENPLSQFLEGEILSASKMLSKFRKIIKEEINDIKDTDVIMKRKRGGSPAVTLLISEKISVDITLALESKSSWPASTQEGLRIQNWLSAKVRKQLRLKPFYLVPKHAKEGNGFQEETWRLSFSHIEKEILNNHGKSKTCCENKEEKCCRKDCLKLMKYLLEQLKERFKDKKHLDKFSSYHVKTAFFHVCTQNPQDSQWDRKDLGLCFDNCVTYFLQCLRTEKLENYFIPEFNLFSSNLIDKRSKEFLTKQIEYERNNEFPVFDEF
In the oligonucleotide strings, read from the 5' end, every base follows the letter of its sugar. An asterisk marks phosphorothioate; unmarked linkages are phosphodiester. Other units and linkages are bracketed, terminal groups are in braces. A string of capitals states the bases alone. d = 2'-deoxy (DNA); m = 2'-O-methyl
cGAS-100 nM: averaged IP-10 levels relative to ISD70 values, listed per item
ASSAY_ENDPOINT: cGAS-100 nM: averaged IP-10 levels relative to ISD70

* mU*mC*mU*mC*mC*A*T*G*T*C*C*C*A*G*G*mC*mC*mU*mC*mC (mU*mC*mU*mC*mC*dA*dT*dG*dT*dC*dC*dC*dA*dG*dG*mC*mC*mU*mC*mC; antisense) [[CDKN2B-AS1]2230] | 94.78%
* mG*mU*mC*mU*mC*C*T*C*C*A*C*A*C*C*C*mU*mU*mC*mU*mC (mG*mU*mC*mU*mC*dC*dT*dC*dC*dA*dC*dA*dC*dC*dC*mU*mU*mC*mU*mC; antisense) [[LINC-PINT]126] | 114.36%
* mC*mC*mU*mU*mC*T*G*C*T*G*C*C*A*A*G*mC*mC*mC*mC*mA (mC*mC*mU*mU*mC*dT*dG*dC*dT*dG*dC*dC*dA*dA*dG*mC*mC*mC*mC*mA; antisense) [[LINC-PINT]94] | 104.33%

----------
TLR9 100 nM values, listed per item
target: human TLR9 (Homo sapiens); construct: HA; host or cells: 293XL-hTLR9-HA (HEK293); experiment: HEK-TLR9 NF-κB-luciferase reporter, ODN2006 stimulation; assay type: cell-based; conditions: MOE-modified ASO at 100 nM; averaged NF-κB-Luciferase relative to ODN2006 condition
ASSAY_ENDPOINT: TLR9 100 nM

* TGTCCTTGCACGTGGCTTCG (antisense; 2'-MOE modified, pattern not given here) [EGFR-1014 MOE] | 0.764
* GAGGTCTTGGCTTCGTGGAG (antisense; 2'-MOE modified, pattern not given here) [MB21D1-523 MOE] | 0.888
* GTGTCTTCATCGGCCCTGCC (antisense; 2'-MOE modified, pattern not given here) [CAMSAP1-2113 MOE] | 0.611
* GAGTCTCTGGAGCTTCCTCT (antisense; 2'-MOE modified, pattern not given here) [CAMSAP1-2456 MOE] | 0.594
* GGAGCTTCGAGGCCCCAGGC (MOE modified, pattern not given here) [MB21D1-616 MOE] | 0.588
* AATCCGCCCAAAGGGAACTG (antisense; 2'-MOE modified, pattern not given here) [HPRT-1027 MOE] | 0.591
* GGTGTCCTTGCACGTGGCTT (antisense; 2'-MOE modified, pattern not given here) [EGFR-1016 MOE] | 1.064

----------
biological target: TLR8 (Homo sapiens, UniProt Q9NR97); experiment: HEK-TLR8 NF-κB-luciferase reporter, R848 or Motolimod stimulation (potentiation or inhibition); type: cell-based; design: expressed in transfected cells; host or cells: 293XLhTLR8 (HEK293); settings: ASO 100 nM; relative to R848 only
Sequence (Q9NR97 27-1041): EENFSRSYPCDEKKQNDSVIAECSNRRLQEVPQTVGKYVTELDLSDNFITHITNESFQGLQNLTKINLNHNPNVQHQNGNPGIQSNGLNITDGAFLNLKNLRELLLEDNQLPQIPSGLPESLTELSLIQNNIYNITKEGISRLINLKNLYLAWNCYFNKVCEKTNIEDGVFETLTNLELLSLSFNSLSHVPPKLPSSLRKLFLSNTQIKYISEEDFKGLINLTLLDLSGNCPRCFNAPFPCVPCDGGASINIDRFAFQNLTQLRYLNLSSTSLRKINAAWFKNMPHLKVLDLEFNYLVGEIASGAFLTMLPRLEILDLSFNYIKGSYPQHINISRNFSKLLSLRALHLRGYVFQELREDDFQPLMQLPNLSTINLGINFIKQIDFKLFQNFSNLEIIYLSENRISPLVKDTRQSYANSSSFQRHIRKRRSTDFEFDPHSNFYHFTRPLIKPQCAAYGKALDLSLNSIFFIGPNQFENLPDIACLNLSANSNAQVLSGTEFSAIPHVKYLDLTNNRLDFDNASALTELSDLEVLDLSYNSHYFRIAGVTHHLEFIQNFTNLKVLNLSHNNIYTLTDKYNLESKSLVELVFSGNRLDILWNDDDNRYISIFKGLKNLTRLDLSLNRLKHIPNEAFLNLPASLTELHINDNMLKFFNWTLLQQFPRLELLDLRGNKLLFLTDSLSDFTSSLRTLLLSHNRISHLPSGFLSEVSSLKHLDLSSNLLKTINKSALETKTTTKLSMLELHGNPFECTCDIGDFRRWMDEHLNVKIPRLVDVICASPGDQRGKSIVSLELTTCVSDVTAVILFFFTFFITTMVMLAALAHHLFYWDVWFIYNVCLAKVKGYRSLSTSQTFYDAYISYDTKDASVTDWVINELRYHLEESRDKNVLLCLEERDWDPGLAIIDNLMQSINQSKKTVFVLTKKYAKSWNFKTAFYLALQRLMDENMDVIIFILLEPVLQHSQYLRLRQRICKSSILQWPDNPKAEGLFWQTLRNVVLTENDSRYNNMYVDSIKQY
Label FALSE if TLR8 100 nM (averaged NF-κB-Luciferase level relative to R848 condition, fold increase) falls below 0.5; label TRUE in every other case.

- TGCTCCTCGGTCTCCC (antisense; LNA-modified, pattern not given here) [CAMSAP1-1850 LNA V1]: TRUE
- AGATTTCAGAGCAGCT (antisense; LNA-modified, pattern not given here) [EGFR-4885 LNA KL]: FALSE
- GACTATACGCGCAATA (antisense; LNA-modified, pattern not given here) [NC5 LNA PS 3-10-3]: TRUE
- GGTCTTGGCTTCGTGG (antisense; LNA-modified, pattern not given here) [MB21D1-523 LNA V1]: TRUE
- GCACACTTCGTACCCA (antisense; LNA-modified, pattern not given here) [CAMSAP1-4915 LNA V1]: FALSE
- TCCATACCCAAGGCAT (antisense; LNA-modified, pattern not given here) [CTNN2B-2446 LNA V1]: TRUE
- TGGTGGCCACCCATCT (antisense; LNA-modified, pattern not given here) [CTNN2B-2479 LNA V1]: FALSE
- GTCAAGGGCATATCCT (antisense; LNA-modified, pattern not given here) [HPRT LNA-732 KL]: TRUE
- CTGCAGCTTCCTTGTC (antisense; LNA-modified, pattern not given here) [CTNN2B-2136 LNA V1]: FALSE
- CTTGGCTTCGTGGAGC (antisense; LNA-modified, pattern not given here) [MB21D1-520 LNA V1]: FALSE
- TCCACAATCAAGACAT (antisense; LNA-modified, pattern not given here) [HPRT LNA-551 KL]: FALSE
- TGCACACTTCGTACCC (antisense; LNA-modified, pattern not given here) [CAMSAP1-4916 LNA V1]: FALSE
- CCTCCCATCTCCTTCA (antisense; LNA-modified, pattern not given here) [HPRT LNA-326 V1]: TRUE
- GTTCAGTCCTGTCCAT (antisense; LNA-modified, pattern not given here) [HPRT LNA-292 V1]: TRUE
- GTGATGGCCTCCCATC (antisense; LNA-modified, pattern not given here) [HPRT LNA-333 V1]: TRUE
- GGTTACGGCTCAGTAT (antisense; LNA-modified, pattern not given here) [CAMSAP1-4295 LNA KL]: TRUE
- TACTTTCCGAGGTGTC (antisense; LNA-modified, pattern not given here) [CAMSAP1-1739 LNA KL]: FALSE
- ACGTTCAGTCCTGTCC (antisense; LNA-modified, pattern not given here) [HPRT LNA-294 V1]: FALSE
- GGCTCGGCTTGCCTAC (antisense; LNA-modified, pattern not given here) [CAMSAP1-5594 LNA V1]: FALSE
- GAAAGGTTATGCAAGG (antisense; LNA-modified, pattern not given here) [CTNN2B-916 LNA KL]: TRUE
- AAAGGACTGAGGAAAG (antisense; LNA-modified, pattern not given here) [CAMSAP1-6273 LNA KL]: TRUE
- GTGATCTTGACATGCT (antisense; LNA-modified, pattern not given here) [EGFR-2790 LNA KL]: TRUE
- GATGGCCTCCCATCTC (antisense; LNA-modified, pattern not given here) [HPRT LNA-331 V1]: FALSE
- ACCACGTCTGCTCTAA (antisense; LNA-modified, pattern not given here) [CAMSAP1-1635 LNA KL]: TRUE
- CCACTTGGCAGACCAT (antisense; LNA-modified, pattern not given here) [CTNN2B-1575 LNA V1]: TRUE
- AGTGTTGAGATACTCG (antisense; LNA-modified, pattern not given here) [EGFR-3652 LNA KL]: FALSE
- GGAGGTCTTGGCTTCG (antisense; LNA-modified, pattern not given here) [MB21D1-526 LNA V1]: TRUE

----------
Target: human TLR9 (Homo sapiens, UniProt Q9NR96)
Construct: HA; host or cells: 293XL-hTLR9-HA (HEK293)
Sequence (Q9NR96 26-1032): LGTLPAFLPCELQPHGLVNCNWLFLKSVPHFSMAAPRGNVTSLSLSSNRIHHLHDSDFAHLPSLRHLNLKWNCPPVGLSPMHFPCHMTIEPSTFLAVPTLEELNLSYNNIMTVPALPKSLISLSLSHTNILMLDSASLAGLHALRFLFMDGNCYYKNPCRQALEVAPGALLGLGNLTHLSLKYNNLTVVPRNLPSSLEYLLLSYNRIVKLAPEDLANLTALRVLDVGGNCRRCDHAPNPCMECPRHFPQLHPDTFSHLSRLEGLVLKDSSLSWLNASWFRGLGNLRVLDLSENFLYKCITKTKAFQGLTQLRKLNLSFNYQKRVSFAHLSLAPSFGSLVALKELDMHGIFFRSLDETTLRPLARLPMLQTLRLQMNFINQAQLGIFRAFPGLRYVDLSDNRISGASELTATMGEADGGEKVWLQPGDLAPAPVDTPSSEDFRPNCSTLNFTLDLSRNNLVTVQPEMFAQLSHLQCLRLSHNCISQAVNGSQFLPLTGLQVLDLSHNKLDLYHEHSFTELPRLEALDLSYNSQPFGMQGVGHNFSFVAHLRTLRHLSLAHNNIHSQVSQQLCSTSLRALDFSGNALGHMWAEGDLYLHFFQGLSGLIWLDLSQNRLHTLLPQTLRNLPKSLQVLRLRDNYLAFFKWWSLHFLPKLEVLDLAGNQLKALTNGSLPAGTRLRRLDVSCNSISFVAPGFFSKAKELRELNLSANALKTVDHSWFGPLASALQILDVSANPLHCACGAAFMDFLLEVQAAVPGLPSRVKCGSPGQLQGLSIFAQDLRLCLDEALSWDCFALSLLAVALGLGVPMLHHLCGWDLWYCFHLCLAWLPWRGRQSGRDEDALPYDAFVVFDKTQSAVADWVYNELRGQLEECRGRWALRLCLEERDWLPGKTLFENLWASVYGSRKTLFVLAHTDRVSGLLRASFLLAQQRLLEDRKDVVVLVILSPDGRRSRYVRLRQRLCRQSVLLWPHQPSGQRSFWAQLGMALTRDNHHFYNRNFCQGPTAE
Assay: HEK-TLR9 NF-κB-luciferase reporter, ODN2006 stimulation
Type: cell-based
Conditions: ASO 500 nM; relative to ODN2006 only, given as fraction
Label not fulfilled if TLR9 500 nM (averaged NF-κB-Luciferase level relative to ODN2006 condition) falls below 0.6; label fulfilled in every other case.

• CGCTTTTCTGTCTGGT (antisense; LNA-modified, pattern not given here) [CTNN2B-311 LNA KL] = not fulfilled
• TGGTGGCCACCCATCT (antisense; LNA-modified, pattern not given here) [CTNN2B-2479 LNA V1] = fulfilled
• GGTTACGGCTCAGTAT (antisense; LNA-modified, pattern not given here) [CAMSAP1-4295 LNA KL] = not fulfilled
• GTCCTTGCACGTGGCT (antisense; LNA-modified, pattern not given here) [EGFR-1015 LNA V1] = fulfilled
• GCAGGCTCAGTGATGT (antisense; LNA-modified, pattern not given here) [CTNN2B-1642 LNA V1] = not fulfilled
• ACGTTCAGTCCTGTCC (antisense; LNA-modified, pattern not given here) [HPRT LNA-294 V1] = not fulfilled
